- systemTested: HLA-B*45:01
- methodDescription: IEDB peptide-MHC binding, purified MHC/competitive/radioactivity; filed as Kd, often an IC50 or EC50 that approximates it; bounds were set here for any values at or beyond the usual limits of such assays
- assaySetup: source organism: Mammarenavirus brazilense
parameter: Kd

>>> testvalue("PEDQGNPIVL")
"≥ 70 µM"

====

- systemTested: HLA-A*01:01
- methodDescription: IEDB peptide-MHC binding, purified MHC/direct/fluorescence; filed as Kd, often an IC50 or EC50 that approximates it; bounds were set here for any values at or beyond the usual limits of such assays
- assaySetup: source organism: Influenza A virus (A/Duck/Shantou/2088/01(H9N2))
parameter: Kd

>>> testvalue("EEMATKADY")
"≥ 20 µM"

====

- systemTested: HLA-A*02:01
- methodDescription: IEDB peptide-MHC binding, purified MHC/competitive/fluorescence; filed as Kd, often an IC50 or EC50 that approximates it; bounds were set here for any values at or beyond the usual limits of such assays
- assaySetup: source organism: Escherichia coli F11
pKd: −log10 of the molar value.
parameter: pKd

>>> testvalue("RTDAWSYPV")
9.10

====

- systemTested: HLA-A*11:01
- methodDescription: IEDB peptide-MHC binding, purified MHC/direct/fluorescence; filed as Kd, often an IC50 or EC50 that approximates it; bounds were set here for any values at or beyond the usual limits of such assays
- assaySetup: source organism: Rickettsia typhi
parameter: Kd (nM)

>>> testvalue("LTIPTIMGR")
3

====

Known pKd of a selection of sequences
- systemTested: HLA-B*54:01
- methodDescription: IEDB peptide-MHC binding, purified MHC/competitive/radioactivity; filed as Kd, often an IC50 or EC50 that approximates it; bounds were set here for any values at or beyond the usual limits of such assays
- assaySetup: source organism: Vaccinia virus WR
pKd: −log10 of the molar value.
parameter: pKd

>>> testvalue("KPYTAGNKV")
7.53
>>> testvalue("SPETQQMII")
4.71
>>> testvalue("NPTKYIRWKL")
5.23
>>> testvalue("VPHSVFIASA")
9.54
>>> testvalue("LPFYETLPEL")
7.53

====

- systemTested: HLA-B*08:01
- methodDescription: IEDB peptide-MHC binding, purified MHC/competitive/radioactivity; filed as Kd, often an IC50 or EC50 that approximates it; bounds were set here for any values at or beyond the usual limits of such assays
- assaySetup: source organism: Vaccinia virus Copenhagen
pKd: −log10 of the molar value.
parameter: pKd

>>> testvalue("SQMERFNCS")
7.41
>>> testvalue("RRLLKFRVE")
6.89

====

- systemTested: HLA-A*03:01
- methodDescription: IEDB peptide-MHC binding, purified MHC/competitive/radioactivity; filed as Kd, often an IC50 or EC50 that approximates it; bounds were set here for any values at or beyond the usual limits of such assays
- assaySetup: source organism: Vaccinia virus WR
For each record, check the reported Kd: if it is below 500 nM write Fulfilled, else write Not fulfilled.

>>> classname("ETFKIDAVRY")
"Not fulfilled"
>>> classname("KSRRLNLFSK")
"Not fulfilled"
>>> classname("IITSTKTIEY")
"Fulfilled"
>>> classname("SSLRREHIK")
"Not fulfilled"
>>> classname("VSVSDFRDY")
"Not fulfilled"
>>> classname("DTSEKYSKGY")
"Not fulfilled"
>>> classname("IMFMLIFNVK")
"Fulfilled"
>>> classname("VTRKCPQKK")
"Fulfilled"
>>> classname("TLITLILSNK")
"Fulfilled"
>>> classname("MMKLGISPSK")
"Fulfilled"
>>> classname("DIEIGNFYIR")
"Not fulfilled"
>>> classname("ELRRAAIDR")
"Not fulfilled"

====

- systemTested: HLA-A*02:01
- methodDescription: IEDB peptide-MHC binding, purified MHC/direct/fluorescence; filed as Kd, often an IC50 or EC50 that approximates it; bounds were set here for any values at or beyond the usual limits of such assays
- assaySetup: source organism: Vibrio vulnificus
pKd: −log10 of the molar value.
parameter: pKd

>>> testvalue("QSPQPVRVK")
"≤ 4.70"

====

- systemTested: HLA-B*15:01
- methodDescription: IEDB peptide-MHC binding, purified MHC/competitive/fluorescence; filed as Kd, often an IC50 or EC50 that approximates it; bounds were set here for any values at or beyond the usual limits of such assays
- assaySetup: source organism: Vaccinia virus Copenhagen
pKd: −log10 of the molar value.
parameter: pKd

>>> testvalue("YHRFGLYRL")
"≤ 4.70"

====

- systemTested: HLA-A*31:01
- methodDescription: IEDB peptide-MHC binding, purified MHC/direct/fluorescence; filed as Kd, often an IC50 or EC50 that approximates it; bounds were set here for any values at or beyond the usual limits of such assays
- assaySetup: source organism: Neisseria gonorrhoeae
parameter: Kd

>>> testvalue("GSDKQVVGQ")
"≥ 20 µM"

====

- systemTested: HLA-A*02:06
- methodDescription: IEDB peptide-MHC binding, purified MHC/competitive/radioactivity; filed as Kd, often an IC50 or EC50 that approximates it; bounds were set here for any values at or beyond the usual limits of such assays
- assaySetup: source organism: Lassa virus Josiah
parameter: Kd (µM)

>>> testvalue("GLYKQPGVPV")
0.804

====

- systemTested: HLA-A*02:03
- methodDescription: IEDB peptide-MHC binding, purified MHC/competitive/radioactivity; filed as Kd, often an IC50 or EC50 that approximates it; bounds were set here for any values at or beyond the usual limits of such assays
- assaySetup: source organism: Homo sapiens
parameter: Kd (nM)

>>> testvalue("ELADKVTKL")
114

====

- systemTested: HLA-B*58:01
- methodDescription: IEDB peptide-MHC binding, purified MHC/competitive/fluorescence; filed as Kd, often an IC50 or EC50 that approximates it; bounds were set here for any values at or beyond the usual limits of such assays
- assaySetup: source organism: Rickettsia bellii OSU 85-389
parameter: Kd

>>> testvalue("EDFEIFYNL")
"≥ 5 µM"

====

- systemTested: HLA-C*03:03
- methodDescription: IEDB peptide-MHC binding, purified MHC/direct/fluorescence; filed as Kd, often an IC50 or EC50 that approximates it; bounds were set here for any values at or beyond the usual limits of such assays
- assaySetup: source organism: Giardia lamblia ATCC 50803
parameter: Kd (nM)

>>> testvalue("IASPILFPF")
3

====

- systemTested: HLA-A*03:01
- methodDescription: IEDB peptide-MHC binding, purified MHC/competitive/radioactivity; filed as Kd, often an IC50 or EC50 that approximates it; bounds were set here for any values at or beyond the usual limits of such assays
- assaySetup: source organism: Mammarenavirus lassaense
pKd: −log10 of the molar value.
parameter: pKd

>>> testvalue("SHLGPQFCK")
6.16

====

- systemTested: HLA-B*39:01
- methodDescription: IEDB peptide-MHC binding, purified MHC/competitive/fluorescence; filed as Kd, often an IC50 or EC50 that approximates it; bounds were set here for any values at or beyond the usual limits of such assays
- assaySetup: source organism: Bacillus anthracis str. 'Ames Ancestor'
parameter: Kd

>>> testvalue("MTQNISNDK")
"≥ 20 µM"

====

- systemTested: HLA-B*45:06
- methodDescription: IEDB peptide-MHC binding, purified MHC/competitive/fluorescence; filed as Kd, often an IC50 or EC50 that approximates it; bounds were set here for any values at or beyond the usual limits of such assays
- assaySetup: source organism: human gammaherpesvirus 4
parameter: Kd

>>> testvalue("WEMRAGREI")
"≥ 5 µM"

====

- systemTested: HLA-B*15:17
- methodDescription: IEDB peptide-MHC binding, purified MHC/competitive/fluorescence; filed as Kd, often an IC50 or EC50 that approximates it; bounds were set here for any values at or beyond the usual limits of such assays
- assaySetup: source organism: Zaire ebolavirus
pKd: −log10 of the molar value.
parameter: pKd

>>> testvalue("WLQKIPLQW")
"≤ 4.70"
>>> testvalue("YFTFDLTAL")
"≤ 4.70"
>>> testvalue("VLYHRYNLV")
"≤ 4.70"

====

- systemTested: HLA-B*15:42
- methodDescription: IEDB peptide-MHC binding, purified MHC/competitive/fluorescence; filed as Kd, often an IC50 or EC50 that approximates it; bounds were set here for any values at or beyond the usual limits of such assays
- assaySetup: source organism: Burkholderia vietnamiensis G4
parameter: Kd

>>> testvalue("WMRWGGWPF")
"≥ 5 µM"

====

- systemTested: HLA-B*15:01
- methodDescription: IEDB peptide-MHC binding, purified MHC/competitive/fluorescence; filed as Kd, often an IC50 or EC50 that approximates it; bounds were set here for any values at or beyond the usual limits of such assays
- assaySetup: source organism: Bacillus anthracis str. 'Ames Ancestor'
parameter: Kd

>>> testvalue("MTQNISNDK")
"≥ 20 µM"

====

- systemTested: HLA-B*35:01
- methodDescription: IEDB peptide-MHC binding, purified MHC/competitive/fluorescence; filed as Kd, often an IC50 or EC50 that approximates it; bounds were set here for any values at or beyond the usual limits of such assays
- assaySetup: source organism: Orthohantavirus andesense
pKd: −log10 of the molar value.
parameter: pKd

>>> testvalue("KPKALSEAF")
7.65
